experimental_system: 17β-HSD1 (Homo sapiens, UniProt P14061)
Construct: was measured in intact cell monolayers of T47D and MDA-MB-231 breast cancer cells respectively; endogenous in cells; host or cells: T-47D human breast cancer cells
experimental_protocol: 17β-HSD Type I activity in T-47D cells (E1→E2)
Type: cell-based
test_parameters: T47D, 10 μM; T-47D cells, E1→E2; read-out: % inhibition of 17β-HSD1 @ 10 μM
Mark 1 for reported inhibition at 10 µM of 70% or greater; mark 0 for anything smaller.

compound	group
C[C@]12CCC3c4ccc(O)cc4CCC3C1CC(CC(=O)NCCc1ccccn1)C2=O (stereo partly drawn)	0

Problem: Identify whether the reported inhibition at 10 µM of the following compound is 70% or greater: C[C@]12CCC3c4ccc(O)cc4CCC3C1C/C(=C\c1ccncc1)[C@@H]2O (stereo partly drawn)
Solution: 1

Problem: Also check CCN(C)C(=O)c1[nH]nc2c1CC1C3CCc4cc(O)ccc4C3CC[C@]21C (stereo partly drawn)
Solution: 1

Problem: Also check CNC(=O)CC1CC2C3CCc4cc(O)ccc4C3CC[C@]2(C)C1=O (stereo partly drawn)
Solution: 1
